Item-by-item account of protein stability index
B1: GLTSCR2 (parent)
chain: YNPSFEDHQTLLSAAHEVELQRQK

Variants of: B1
Assay: protein stability index of a GFP-peptide fusion (GPS, HEK-293T) (PSI 1-6); higher = more stable;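 further: lentivirally expressed fusions sorted by FACS into six bins by GFP to DsRed ratio, PSI derived from sequencing read proportions per bin multiplied by bin number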
Details: c terminus: a fixed tail appended
REPORTED ENDPOINT: protein stability index

{"columns": ["RESIDUE CODES", "REPORTED VALUE"],
 "data": [
  ["YNPSFEDHQELLSAAHEVELQRQK [T10E]", 4.44],
  ["YNPSFEDHQTLLSQAHEVELQRQK [A14Q]", 3.86],
  ["YNPQFEDHQTLLSAAHEVELQRQK [S4Q]", 4.28],
  ["YNPSLEDHQTLLSAAHEVELQRQK [F5L]", 3.43],
  ["YNPSFEKHQTLLSAAHEVELQRQK [D7K]", 3.62],
  ["YNPSFEDHQTLLCAAHEVELQRQK [S13C]", 3.25],
  ["YNPSFEDHQTLLSAAHEVESQRQK [L20S]", 4.26],
  ["YNPSFEDHQTLLSAAHEVELQAQK [R22A]", 4.18],
  ["YNPSFQDHQTLLSAAHEVELQRQK [E6Q]", 2.58],
  ["YNPSFEDHQTLLSAAPEVELQRQK [H16P]", 4.19],
  ["YNPSFEDHQTLLSCAHEVELQRQK [A14C]", 2.53],
  ["YNPSFEDHQTLLSAAHEVALQRQK [E19A]", 2.63],
  ["YNPSFEDHQTLLSAANEVELQRQK [H16N]", 3.92],
  ["YNPSFEDHQTLLSAAHEVELQRQY [K24Y]", 3.18],
  ["YNPSFEYHQTLLSAAHEVELQRQK [D7Y]", 3.52]
]}
